tested on: TCDD-induced MCF-7 cells; experiment: TCDD-induced MCF-7 cell line cytotoxicity assay, MTT; format: cell-based, human; details: Homo sapiens, MCF7, MCF-7 cells induced with 10 nM TCDD for 24 hours, 96 hours, MTT
Exercise: state measured IC50 for each of the compounds provided.

> print(dat)
                                   compound             tested.target  measure  reported.result
1  CCOc1ccc(/C=C/C(=O)c2cc(OC)c(OC)c(OC)c2)cc1 [DMU-190]  TCDD-induced MCF-7 cells     IC50           390 nM
2  CCCOc1ccc(/C=C/C(=O)c2cc(OC)ccc2OC)cc1 [DMU-424]  TCDD-induced MCF-7 cells     IC50          2000 nM
3  CCCOc1ccc(/C=C/C(=O)c2cccc(OC)c2)cc1 [DMU-417]  TCDD-induced MCF-7 cells     IC50         10000 nM
4  COc1cc(OC)cc(C(=O)/C=C/c2ccc(OC(C)(C)C)cc2)c1 [DMU-402, reference compound]  TCDD-induced MCF-7 cells     IC50          6200 nM
5  CCCOc1ccc(/C=C/C(=O)c2cc(OC)cc(OC)c2)cc1O [DMU-185]  TCDD-induced MCF-7 cells     IC50           660 nM

Could you tell me IC50 for each of these compounds? They are listed below.
1. CCCCOc1ccc(/C=C/C(=O)c2cc(OC)c(OC)c(OC)c2)cc1 [DMU-192]
2. CCCCOc1ccc(/C=C/C(=O)c2cc(OC)c(OC)c(OC)c2)cc1O [DMU-189]
3. CCCOc1ccc(/C=C(\C)C(=O)c2cc(OC)cc(OC)c2)cc1 [DMU-432]
4. CCCCOc1ccc(/C=C/C(=O)c2cc(OC)cc(OC)c2)cc1O [DMU-186]

*A*
1. 1600 nM
2. 2500 nM
3. 80 nM
4. 650 nM

* * *

System: MCF-10A normal breast cell line
Test: MCF-10A normal cell line cytotoxicity assay
Format: cell-based
Conditions: Homo sapiens, without TCDD
Protocol: Cells were maintained in RPMI 1640 with Glutamax 1 (Life Technologies) with 10% (v/v) heat inactivated foetal calf serum (Hybrimax. Sigma), at 37° C., 5% CO2/95% air with 100% humidity and passaged using trypsin/EDTA. […] Plates were vortexed and the absorbance at 540 nm determined using a plate reader. […] The tumour selectivity differential factor (TSDF) is calculated by dividing the IC50 obtained from the MCF-10A data by the IC50 obtained from the MDA-468 data.
measure: IC50

Worked cases, answers included:
> print(dat)
                                   compound  reported.result
1  CN(Cc1cnc2nc(N)nc(N)c2n1)c1ccc(C(=O)N[C@@H](CCC(=O)O)C(=O)O)cc1 [Methotrexate, methotrexate]          0.06 µM
2  CCCOc1ccc(/C=C/C(=O)c2cc(OC)cc(OC)c2)cc1            16 µM

*Q* Provide the documented IC50 with MCF-10A normal breast cell line as the system for `COc1cccc2c1C(=O)c1c(O)c3c(c(O)c1C2=O)C[C@@](O)(C(=O)CO)C[C@@H]3O[C@H]1C[C@H](N)[C@H](O)[C@H](C)O1`
*A* 0.0003 µM

Cited source for all entries: patent US7112698B2
